Test system: Vero E6 infected with SARS-CoV-2
Assay: morphology score (similarity to uninfected cells); higher = more like uninfected cells
Settings: 24 h

{"molecule": "CC(C)CCC[C@@H](C)[C@H]1CC[C@H]2[C@@H]3CC=C4C[C@@H](O)CC[C@]4(C)[C@H]3CC[C@]12C [cholesterol] (10 µM)", "morphology score": 0.178}
{"molecule": "C[C@@H]1C(=O)O[C@H]2C[C@@]34[C@H]5C[C@@H](C(C)(C)C)[C@]36[C@@H](OC(=O)[C@@H]6O)O[C@@]4(C(=O)O5)[C@]21O [Ginkgolide A] (10 µM)", "morphology score": -0.0141}
{"molecule": "CN1CCN(CCOc2cc(OC3CCOCC3)c3c(Nc4c(Cl)ccc5c4OCO5)ncnc3c2)CC1 [saracatinib] (10 µM)", "morphology score": -0.132}
{"molecule": "CCC1NC(=O)c2cc(S(N)(=O)=O)c(Cl)cc2N1 (stereo unspecified) [quinethazone] (10 µM)", "morphology score": 0.339}
{"molecule": "CN1[C@@H]2CC[C@H]1C[C@@H](OC(c1ccc(F)cc1)c1ccc(F)cc1)C2 [3-alpha-bis-(4-fluorophenyl)-methoxytropane] (10 µM)", "morphology score": 0.266}
{"molecule": "COc1ccc2[nH]cc(CCNC(C)=O)c2c1 [melatonin] (10 µM)", "morphology score": 0.0444}
{"molecule": "CCCCCCN(CCCCCC)C(=O)Cc1c(-c2ccc(Cl)cc2)[nH]c2ccc(Cl)cc12 (10 µM)", "morphology score": -0.00824}
{"molecule": "CN(C)NC(=O)CCC(=O)O [daminozide] (10 µM)", "morphology score": 0.0765}
{"molecule": "Nc1ccc(O)c(C(=O)O)c1 [mesalazine] (10 µM)", "morphology score": 0.0799}
{"molecule": "C[C@@H]1c2ccccc2CN1CC1=NCCN1 (racemic) (10 µM)", "morphology score": 0.0304}
{"molecule": "c1ccc(NCc2ccc(CNc3ccccn3)cc2)nc1 (10 µM)", "morphology score": -0.0443}
{"molecule": "OCCn1cc(-c2cnc3nnn(Cc4ccc5ncccc5c4)c3n2)cn1 (10 µM)", "morphology score": -0.0332}
{"molecule": "Oc1ccc(O)cc1 [hydroquinone] (10 µM)", "morphology score": 0.00582}
{"molecule": "Cc1ccc(=O)n(-c2ccc(O)cc2)c1 (10 µM)", "morphology score": -0.0543}
{"molecule": "COc1cc(N)c(Cl)cc1C(=O)N[C@@H]1CCN(CCCOc2ccc(F)cc2)C[C@@H]1OC (racemic) [cisapride] (10 µM)", "morphology score": -0.0266}
{"molecule": "O=[N+]([O-])/C=C/c1ccc2c(c1)OCO2 [3,4-methylenedioxy-beta-nitrostyrene] (10 µM)", "morphology score": 0.58}
{"molecule": "O=S(=O)(N[C@H]1CC[C@@](c2cc(F)ccc2F)(S(=O)(=O)c2ccc(Cl)cc2)CC1)C(F)(F)F (10 µM)", "morphology score": 0.0636}
{"molecule": "Cc1cc(=O)n(-c2ccccc2)[nH]1 [N-demethylantipyrine] (10 µM)", "morphology score": 0.121}
{"molecule": "CC[C@@]1(O)C(=O)OCc2c1cc1n(c2=O)Cc2cc3cc(O)ccc3nc2-1 [10-hydroxycamptothecin] (10 µM)", "morphology score": -0.13}
{"molecule": "O=C1CCc2ccc(OCCCCN3CCN(c4cccc(Cl)c4Cl)CC3)cc2N1 [aripiprazole] (10 µM)", "morphology score": -0.0119}
{"molecule": "c1ccc(N2CCN(CCCOc3ccc4c(c3)OCO4)CC2)cc1 (10 µM)", "morphology score": 0.0822}
